Can you tell me growth for the items I'm about to list?
# Test system: UO-31 renal
# METHOD_NOTES: NCI-60 one-dose screen, 48 h (100 = growth as untreated, 0 = no growth, -100 = all killed)
# CONDITIONS_USED: 10 µM unless noted
# Description: Growth inhibition of the UO-31 human tumor cell line is measured as a screen for anti-cancer activity. Cells are grown in 96 well plates and exposed to the test compound for 48 hours. Compounds are tested at a single concentration, which is 10^-5 M for most compounds. The reported endpoint is percent growth (GI% or GIPRCNT), where numbers from 0 - 100% represent growth inhibition, and numbers from -100% - 0 represent cell death. For example, a value of 40 represents 60% growth inhibition. […]
The panel holds about 83,000 compounds, 20% with a hit somewhere; the sample as a whole holds those more often.
Numbers only, in %.

Answered cases to consult:
* O=C(Cc1ccccc1)Nc1nnc(NC2CCN(c3nnc(NC(=O)Cc4ccccc4)s3)CC2)s1 | 74.4
* CCCCCCCC(=O)SCC/C=C/[C@@H]1CC(=O)NCc2cc(ccn2)C2=N[C@@](C)(CS2)C(=O)N[C@@H](C(C)C)C(=O)O1 | -10.5
* Cc1nc(-c2cn3c(n2)-c2ccc(-c4cnn(C(C)(C)C(N)=O)c4)cc2OCC3)n(C(C)C)n1 | 5.32

Now let's try a different one.
Requested read-out: growth. Entry: `O=C(Cn1ccnc1)Nc1ccc(-c2nc3ccccc3s2)cc1`
60.4
